Each recorded value in this set is attributed to ChEMBL document CHEMBL2331253.

Field: MIC. Provide a value for each of the compounds that follow.
# System: Klebsiella pneumoniae
# Assay text: Antibacterial activity against doxycycline, kanamycin-resistant Klebsiella pneumoniae ATCC 27799 assessed as growth inhibition by CLSI broth microdilution method
# Type: functional

**Query** MIC for Cc1cc(O)c2c(c1)C(=O)c1cc(O)cc(O)c1C2=O ?
**Result** > 64 µg/mL

**Query** Next up: COc1cc2cc3c(c(O)c2c(O)c1-c1c(O)cc2c(O)c4c(cc2c1O)CC(C)(O)CC4=O)C(=O)CC(C)(O)C3 (single isomer, unassigned; atropisomer)
**Result** > 64 µg/mL

**Query** Next up: COc1cc2cc3c(c(O)c2c(O)c1-c1c(O)cc2cc4c(c(O)c2c1O)C(=O)CC(C)(O)C4)C(=O)CC(C)(O)C3 (single isomer, unassigned; atropisomer)
**Result** > 64 µg/mL
